# Test system: MDA-MB-468 cells
# protocolNotes: Anchorage independent growth
# Assay type: cell-based, human
# conditionSummary: read-out: IC50 Anchorage independent growth (MTT); MDA-MB 468; Mean ± SEM, n ≥ 2
quantityName: IC50 (µM)

- COc1cc(/C=C/C(=O)N2CCC=CC2=O)cc(OC)c1OC: 4.6

====

# Tested on: Stat3 phosphorylation
# protocolNotes: Constitutive Stat3 phosphorylation in breast cancer cell lines
# Type: cell-based, human
# conditionSummary: read-out: IC50 Constitutive Stat3 phosphorylation; MDA-MB 231; Mean ± SEM, n ≥ 2
quantityName: IC50 (nM)

- COc1cc(/C=C/C(=O)N2CCC=CC2=O)cc(OC)c1OC: 400

====

# studyTarget: UniProt:P40763
# Sequence (P40763 whole entry): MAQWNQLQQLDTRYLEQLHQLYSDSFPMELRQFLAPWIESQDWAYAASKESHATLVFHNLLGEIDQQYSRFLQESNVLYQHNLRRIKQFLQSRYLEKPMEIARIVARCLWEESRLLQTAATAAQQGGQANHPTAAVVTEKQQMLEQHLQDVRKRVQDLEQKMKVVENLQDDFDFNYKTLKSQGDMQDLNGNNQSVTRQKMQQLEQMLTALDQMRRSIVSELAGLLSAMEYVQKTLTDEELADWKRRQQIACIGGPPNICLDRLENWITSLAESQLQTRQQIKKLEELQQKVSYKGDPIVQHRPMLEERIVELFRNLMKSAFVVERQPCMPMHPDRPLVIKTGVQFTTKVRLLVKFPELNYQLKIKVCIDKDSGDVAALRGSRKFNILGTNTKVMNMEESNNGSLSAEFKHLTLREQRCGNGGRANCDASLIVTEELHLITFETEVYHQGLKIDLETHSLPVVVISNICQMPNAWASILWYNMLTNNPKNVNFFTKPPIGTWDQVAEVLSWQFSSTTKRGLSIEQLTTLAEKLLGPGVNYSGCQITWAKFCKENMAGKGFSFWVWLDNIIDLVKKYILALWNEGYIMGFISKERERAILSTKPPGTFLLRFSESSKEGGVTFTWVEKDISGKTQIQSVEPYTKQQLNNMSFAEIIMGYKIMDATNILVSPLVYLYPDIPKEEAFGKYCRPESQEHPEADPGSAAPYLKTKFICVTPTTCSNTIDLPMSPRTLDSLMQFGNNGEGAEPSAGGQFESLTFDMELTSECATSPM
pIC50: −log10 of the molar value.
quantityName: pIC50

- O=C1C=CC(=O)c2c1ccc1c2ccc2ccccc21: 5.00

====

# Tested on: MCF-12A
# protocolNotes: Anchorage independent growth
# Type: cell-based
# conditionSummary: read-out: Anchorage independent Growth IC50, 80 hrs, no sensitivity taken as 100 μM
quantityName: IC50

* COc1cc(/C=C/C(=O)N2CCC=CC2=O)cc(OC)c1OC | > 100 µM

====

# System: Stat3 phosphorylation
# protocolNotes: Phosphoflow assay, G-CSF stimulated Stat3 phosphorylation in Kasumi-1 cells
# Assay type: cell-based
# conditionSummary: read-out: IC50 G-CSF stimulated Stat3 phosphorylation, Mean ± SEM, n ≥ 2, G-CSF 10 ng/ml 15′
pIC50: −log10 of the molar value.
quantityName: pIC50

* COc1cc(/C=C/C(=O)N2CCC=CC2=O)cc(OC)c1OC | 5.43

====

# Test system: MCF 10A
# protocolNotes: Anchorage independent growth
# Format: cell-based
# conditionSummary: read-out: Anchorage Independent Growth IC50, 16 hrs, no sensitivity taken as 100 μM
quantityName: IC50

* COc1cc(/C=C/C(=O)N2CCC=CC2=O)cc(OC)c1OC | > 100 µM

====

# Test system: T-47D
# protocolNotes: Anchorage independent growth
# Assay type: cell-based, human
# conditionSummary: read-out: Anchorage independent Growth IC50, 80 hrs
quantityName: IC50 (nM)

- COc1cc(/C=C/C(=O)N2CCC=CC2=O)cc(OC)c1OC [Piperlongumine, piperlongumine]: 300

====

# Test system: MCF-7
# protocolNotes: Anchorage independent growth
# Format: cell-based, human
# conditionSummary: read-out: Anchorage independent Growth IC50, 80 hrs
quantityName: IC50 (µM)

* COc1cc(/C=C/C(=O)N2CCC=CC2=O)cc(OC)c1OC [Piperlongumine, piperlongumine] | 3.6
